- TESTED ON: UniProtKB Q8ILY1
- Sequence (Q8ILY1 entry or part of it): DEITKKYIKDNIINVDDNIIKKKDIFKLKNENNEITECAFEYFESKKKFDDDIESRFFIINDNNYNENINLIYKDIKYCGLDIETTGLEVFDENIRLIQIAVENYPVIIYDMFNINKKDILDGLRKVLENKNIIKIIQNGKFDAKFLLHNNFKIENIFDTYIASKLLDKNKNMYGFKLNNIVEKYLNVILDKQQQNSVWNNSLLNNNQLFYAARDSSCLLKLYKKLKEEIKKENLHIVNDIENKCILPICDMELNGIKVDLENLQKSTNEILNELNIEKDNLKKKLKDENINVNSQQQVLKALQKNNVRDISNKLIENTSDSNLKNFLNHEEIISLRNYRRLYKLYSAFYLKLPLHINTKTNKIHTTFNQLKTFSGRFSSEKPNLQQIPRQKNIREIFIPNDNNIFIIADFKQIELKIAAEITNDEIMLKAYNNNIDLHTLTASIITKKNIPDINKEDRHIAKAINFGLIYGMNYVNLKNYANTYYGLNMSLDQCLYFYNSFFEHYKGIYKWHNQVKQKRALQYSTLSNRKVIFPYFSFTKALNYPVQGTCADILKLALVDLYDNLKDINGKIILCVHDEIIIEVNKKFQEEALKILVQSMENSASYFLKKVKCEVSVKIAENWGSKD
- ASSAY: Fluorescence-based high-throughput DNA polymerase assay (molecular beacon), primary screen and dose-response;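 note: test concentration in µM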
- Type: biochemical
- CONDITION INFO: DRC-2, 180', concentration 2.5
READOUT: % inhibition apPOL 180' (%)
Hi! Could you send only the number? It should be in %, unit omitted.

Field: example entries. Status: answers known.
O=C(O)C(=O)Nc1nc(-c2ccc3c(c2)OCCO3)cs1; 0.181
Cc1ncc(CSc2nc(C(C)(C)C)cs2)c(CO)c1O; -3
O=C(Nc1nnc(-c2ccno2)o1)c1ccc2ncsc2c1; -3
Cn1nc(C(=O)N2CCc3c(nc4cc(-c5ccccc5)[nH]n4c3=O)C2)c2ccccc21; 0.809

Lookup result for `Oc1ccc(N=Nc2ccccc2)c(O)c1` ; measured % inhibition apPOL 180': -4

`O=c1cc(-c2ccccc2)oc2c(O)c(O)ccc12` yielded % inhibition apPOL 180' of 1.74

Entry O=C(c1c[nH]c2ncccc12)N1CCCCCC1 [Molecule 51, O=C(c1c[nH]c2c1cccn2)N1CCCCCC1] — recorded % inhibition apPOL 180' = -1

// `CS(=O)(=O)c1cccc(C(=O)Nc2nnc(-c3ccno3)o2)c1` : % inhibition apPOL 180' value = -5.4

Per the records, this compound ( `O=C(Nc1nnc(-c2cccs2)o1)c1ccc([N+](=O)[O-])o1` ) has % inhibition apPOL 180' equal to -3.19

Lookup result for `COc1ccccc1CCC(=O)N1CCc2c(nc3cc(-c4ccccc4)[nH]n3c2=O)C1` ; measured % inhibition apPOL 180': 3

---

- TESTED ON: bacteriophage T4 DNA polymerase (Enterobacteria phage T4)
- Construct: made in house
- Sequence (P04415 1-898): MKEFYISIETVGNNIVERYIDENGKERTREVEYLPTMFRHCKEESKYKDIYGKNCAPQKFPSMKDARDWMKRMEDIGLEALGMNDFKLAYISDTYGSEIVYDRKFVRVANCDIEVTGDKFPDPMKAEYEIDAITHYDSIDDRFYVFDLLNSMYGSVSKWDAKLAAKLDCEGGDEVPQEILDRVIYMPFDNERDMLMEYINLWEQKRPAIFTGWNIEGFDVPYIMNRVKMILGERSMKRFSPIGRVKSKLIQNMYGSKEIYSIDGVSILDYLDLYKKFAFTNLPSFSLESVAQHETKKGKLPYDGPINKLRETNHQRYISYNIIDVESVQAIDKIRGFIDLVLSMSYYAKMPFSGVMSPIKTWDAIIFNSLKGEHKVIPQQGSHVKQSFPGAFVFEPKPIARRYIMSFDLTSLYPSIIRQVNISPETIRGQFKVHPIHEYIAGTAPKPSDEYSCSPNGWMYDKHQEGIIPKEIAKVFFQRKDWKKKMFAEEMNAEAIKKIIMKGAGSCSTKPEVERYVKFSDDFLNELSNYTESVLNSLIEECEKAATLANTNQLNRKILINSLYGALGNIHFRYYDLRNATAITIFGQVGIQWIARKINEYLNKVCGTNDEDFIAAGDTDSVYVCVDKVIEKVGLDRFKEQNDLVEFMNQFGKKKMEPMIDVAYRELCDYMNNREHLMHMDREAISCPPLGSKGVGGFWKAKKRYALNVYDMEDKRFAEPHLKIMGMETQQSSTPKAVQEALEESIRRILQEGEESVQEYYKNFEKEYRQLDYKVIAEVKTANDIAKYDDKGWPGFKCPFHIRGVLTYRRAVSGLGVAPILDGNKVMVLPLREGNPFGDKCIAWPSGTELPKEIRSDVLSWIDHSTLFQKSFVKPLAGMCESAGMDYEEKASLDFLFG
- ASSAY: Counter-screen against bacteriophage T4 DNA polymerase
- Format: biochemical
- CONDITION INFO: DRC-1; read at 10'; concentration 5
READOUT: % inhibition T4 10' 5 (%)
The response must be a number in % with no trailing unit.

Worked set:
CC(=O)Nc1cc(C(=O)c2cccs2)nn(-c2ccc(Cl)cc2)c1=O; -1.511
O=C(c1ccccc1)N1CCc2c(nc3cc(-c4ccccc4)[nH]n3c2=O)C1; -4.492
Cc1ccsc1Cn1c(C)ccc1C; -2.675
Cn1nc(-c2nnc(-c3ccccc3F)o2)c2c1CCN(C(=O)c1ccccc1Cl)C2; -0.853
CC(C)CC(C(=O)O)N1C(=O)C2C3C=CC(C2C1=O)C1C(=O)N(C(CC(C)C)C(=O)O)C(=O)C31 (centres unmarked); 4.491
N#Cc1c(O)nc(N2CCCCC2)nc1-c1ccc2c(c1)OCO2; -6.153
COc1ccccc1CC(=O)N1CCc2c(nc3cc(-c4ccccc4Cl)[nH]n3c2=O)C1; -4
COc1ccc(/C=C/c2cc(C(=O)O)c3ccccc3n2)cc1; 5.185

Lab note: Cc1ccc(N2CCC(NC(=O)Cc3cccs3)C2=O)cc1C (centres unmarked) gave % inhibition T4 10' 5 of 6.066

`Cc1cccc(-c2noc(C(=O)NNC(=O)C(Cl)(Cl)Cl)n2)c1` has a reported % inhibition T4 10' 5 of -2.3946

Record summary for `CCCc1ccc(Oc2coc3cc(OC)ccc3c2=O)cc1` : reported % inhibition T4 10' 5 = -0.5189

The compound listed as C#CC(C=CC)OC(=O)c1ccccc1C(=O)O (centres unmarked) has a reported % inhibition T4 10' 5 of 11.31

compound `Cc1nc(C)c2c(n1)N(CC1CCCCC1)C(=O)CC2` , % inhibition T4 10' 5 observed: -3.989

Measured % inhibition T4 10' 5, `Nc1cc(Oc2ccc(O)c(N)c2)ccc1O` : 9.797

Note to self: % inhibition T4 10' 5 recorded for COc1ccc(C2CC(c3ccc(Cl)cc3Cl)Nc3nc(N)nn32)cc1OC (centres unmarked) was 0.398

Data point: `Cc1cc2[nH]c(C(=O)Nc3ccc(F)cc3)c(CN3CCOCC3)c2s1` ; % inhibition T4 10' 5 = 9.215

Per the record, O=C1CSC2=NC3=C(CCc4ccccc43)C(c3cccs3)N12 (centres unmarked) has % inhibition T4 10' 5 of 9.284
